Ref: patent EP4299124A1

TARGET: T1, rat mGlu2 SNAP-tagged receptor (rat, UniProt P31421 19-872, SNAP tag labelled with SNAP-Lumi4-Tb)
T1 construct: whole, on cells; also called mGluR2; not shown: SNAP tag
T1 sequence (P31421 19-872): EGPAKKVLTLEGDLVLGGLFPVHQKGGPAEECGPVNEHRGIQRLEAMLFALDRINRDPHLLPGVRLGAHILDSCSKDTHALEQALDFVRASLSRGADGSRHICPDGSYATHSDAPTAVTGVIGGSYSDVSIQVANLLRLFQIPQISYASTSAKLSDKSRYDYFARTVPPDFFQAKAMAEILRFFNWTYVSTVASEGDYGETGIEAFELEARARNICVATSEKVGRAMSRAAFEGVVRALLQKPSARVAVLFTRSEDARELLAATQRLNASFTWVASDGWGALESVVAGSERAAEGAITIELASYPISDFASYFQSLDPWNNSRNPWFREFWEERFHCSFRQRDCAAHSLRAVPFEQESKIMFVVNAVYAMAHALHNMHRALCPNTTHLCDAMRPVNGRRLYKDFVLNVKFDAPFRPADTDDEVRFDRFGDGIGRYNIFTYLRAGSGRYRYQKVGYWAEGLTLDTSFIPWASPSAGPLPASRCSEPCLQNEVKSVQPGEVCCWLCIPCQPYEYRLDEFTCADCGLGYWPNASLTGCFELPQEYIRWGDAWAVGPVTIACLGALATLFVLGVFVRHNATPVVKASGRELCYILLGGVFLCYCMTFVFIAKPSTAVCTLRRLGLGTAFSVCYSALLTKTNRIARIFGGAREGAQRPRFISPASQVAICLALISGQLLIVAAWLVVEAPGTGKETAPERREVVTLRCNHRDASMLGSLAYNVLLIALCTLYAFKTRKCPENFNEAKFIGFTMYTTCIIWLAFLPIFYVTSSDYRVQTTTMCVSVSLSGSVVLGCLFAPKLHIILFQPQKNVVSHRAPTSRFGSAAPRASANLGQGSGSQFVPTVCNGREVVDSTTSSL
ASSAY_REMARKS: TR-FRET on HEK-293 cells with SNAP-tagged rat mGlu2, anti-6His-d2; active conformation
PROPERTY: pKd (pKd)
# number only, unit pKd dropped from output

What measured pKd goes with IGF-1262 (IGF-1168 HcAb IGF-1168) (VHH, Used His-tagged in the assay) QVQLVQSGGGLVQAGGSLRLSCAASVRFFSINTMGWYRQAPGKQRELVADITSSGSTNYADSGKGRFTISRDNAKNTVYLQMNRLKPEDTAVYYCHADYKYTTHNTAWGQGTQVTVSSEPKIPQPQPKPQPQPQPQPQPKPQPKPEPQVQLVQSGGGLVQAGGSLRLSCAASVRFFSINTMGWYRQAPGKQRELVADITSSGSTNYADSGKGRFTISRDNAKNTVYLQMNRLKPEDTAVYYCHADYKYTTHNTAWGQGTQVTVSS ?
8.23

What measured pKd goes with IGF-1261 (IGF-1168 GS IGF-1168) (VHH, Used His-tagged in the assay) QVQLVQSGGGLVQAGGSLRLSCAASVRFFSINTMGWYRQAPGKQRELVADITSSGSTNYADSGKGRFTISRDNAKNTVYLQMNRLKPEDTAVYYCHADYKYTTHNTAWGQGTQVTVSSGGGGSGGGGSGGGGSQVQLVQSGGGLVQAGGSLRLSCAASVRFFSINTMGWYRQAPGKQRELVADITSSGSTNYADSGKGRFTISRDNAKNTVYLQMNRLKPEDTAVYYCHADYKYTTHNTAWGQGTQVTVSS ?
8.51

Kindly consider the entry below.
What measured pKd goes with IGF-1251 (IGF-1159 GS IGF-1168) (bispecific antibody) QVQLVQSGGGLVQAGGSLRLSCAASGRTFSSFAMAWFRQAPGKEREFVAAISWSGSTGHADSVKGRFTITRDNAKNTVFLQMNSLKPEDTAVYYCALGKGSSYYYSPSGYDYWGQGTQVTVSSGGGGSGGGGSGGGGSQVQLVQSGGGLVQAGGSLRLSCAASVRFFSINTMGWYRQAPGKQRELVADITSSGSTNYADSGKGRFTISRDNAKNTVYLQMNRLKPEDTAVYYCHADYKYTTHNTAWGQGTQVTVSS ?
8.99
